Target: MDC-L (Homo sapiens)
Construct: FLAG (C); made in house; host or cells: Sf9 insect cells (baculovirus, pFastBac1)
Sequence (Q9UKQ2 204-399 limits assumed): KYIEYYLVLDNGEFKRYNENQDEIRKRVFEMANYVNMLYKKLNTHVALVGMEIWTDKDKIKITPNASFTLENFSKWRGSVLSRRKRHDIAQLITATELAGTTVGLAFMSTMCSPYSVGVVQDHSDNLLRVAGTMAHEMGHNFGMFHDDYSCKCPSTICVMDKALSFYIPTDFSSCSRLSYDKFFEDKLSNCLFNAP
Assay: FRET peptide substrate screening, MDC-L
Assay type: biochemical
Design: key: from one star (*) to five stars (*****) to indicate weaker to more potent substrates respectively; from one star (*) to five stars (*****) to indicate weaker to more potent substrates respectively; from one star (*) to five stars (*****) to indicate weaker to more potent substrates respectively; from one star (*) to five stars (*****) to indicate weaker to more potent substrates respectively; (—) = no detectable activity
Settings: FRET peptide 20 uM, room temperature
Readout Type: Relative proteolytic activity MDC-L

Recorded Relative proteolytic activity MDC-L, per entry:
Z-LAQAVRSSSR-X ({dabcyl‑K}-LAQAVRSSSR-{Edans‑E}) [TNFα(−4 + 6), FRET peptide substrate; X = Edans-E; Z = dabcyl-K]	*
X-PPVAASSLRN-Z ({Edans‑E}-PPVAASSLRN-{dabcyl‑K}) [KL1, FRET peptide substrate; X = Edans-E; Z = dabcyl-K]	***
Z-RGVVNASSRLAK-X ({dabcyl‑K}-RGVVNASSRLAK-{Edans‑E}) [KAS-1, FRET peptide substrate; X = Edans-E; Z = dabcyl-K]	***
X-KPAKFFRL-Z ({Edans‑E}-KPAKFFRL-{dabcyl‑K}) [CatEl, FRET peptide substrate; X = Edans-E; Z = dabcyl-K]	*****
X-PLAQAVRSSS-Z ({Edans‑E}-PLAQAVRSSS-{dabcyl‑K}) [TNFα, FRET peptide substrate; X = Edans-E; Z = dabcyl-K]	***

Dear reader, for each entry below, please note its Relative proteolytic activity MDC-L.
1. Z-RPLGLAR-X ({dabcyl‑K}-RPLGLAR-{Edans‑E}) [Mat, FRET peptide substrate; X = Edans-E; Z = dabcyl-K]
2. X-RVRRALPS-Z ({Edans‑E}-RVRRALPS-{dabcyl‑K}) [AD8P2, FRET peptide substrate; X = Edans-E; Z = dabcyl-K]
3. X-PSAAQTARQHP-Z ({Edans‑E}-PSAAQTARQHP-{dabcyl‑K}) [TNFB2, FRET peptide substrate; X = Edans-E; Z = dabcyl-K]
4. X-KPAAFFRL-Z ({Edans‑E}-KPAAFFRL-{dabcyl‑K}) [CatE, FRET peptide substrate; X = Edans-E; Z = dabcyl-K]
5. X-RTAAVFRP-Z ({Edans‑E}-RTAAVFRP-{dabcyl‑K}) [AD8P, FRET peptide substrate; X = Edans-E; Z = dabcyl-K]
6. X-RFAQAQQQLP-Z ({Edans‑E}-RFAQAQQQLP-{dabcyl‑K}) [CD27L, FRET peptide substrate; X = Edans-E; Z = dabcyl-K]

[A]
***
***
***
*****
*
****

---

target: ADAM17 (Homo sapiens); construct: made in house; experiment: FRET peptide substrate screening, ADAM17; type: biochemical; set-up: key: from one star (*) to five stars (*****) to indicate weaker to more potent substrates respectively; from one star (*) to five stars (*****) to indicate weaker to more potent substrates respectively; from one star (*) to five stars (*****) to indicate weaker to more potent substrates respectively; from one star (*) to five stars (*****) to indicate weaker to more potent substrates respectively; (—) = no detectable activity; conditions: FRET peptide 20 uM, room temperature
Sequence (P78536 215-824, species assumed): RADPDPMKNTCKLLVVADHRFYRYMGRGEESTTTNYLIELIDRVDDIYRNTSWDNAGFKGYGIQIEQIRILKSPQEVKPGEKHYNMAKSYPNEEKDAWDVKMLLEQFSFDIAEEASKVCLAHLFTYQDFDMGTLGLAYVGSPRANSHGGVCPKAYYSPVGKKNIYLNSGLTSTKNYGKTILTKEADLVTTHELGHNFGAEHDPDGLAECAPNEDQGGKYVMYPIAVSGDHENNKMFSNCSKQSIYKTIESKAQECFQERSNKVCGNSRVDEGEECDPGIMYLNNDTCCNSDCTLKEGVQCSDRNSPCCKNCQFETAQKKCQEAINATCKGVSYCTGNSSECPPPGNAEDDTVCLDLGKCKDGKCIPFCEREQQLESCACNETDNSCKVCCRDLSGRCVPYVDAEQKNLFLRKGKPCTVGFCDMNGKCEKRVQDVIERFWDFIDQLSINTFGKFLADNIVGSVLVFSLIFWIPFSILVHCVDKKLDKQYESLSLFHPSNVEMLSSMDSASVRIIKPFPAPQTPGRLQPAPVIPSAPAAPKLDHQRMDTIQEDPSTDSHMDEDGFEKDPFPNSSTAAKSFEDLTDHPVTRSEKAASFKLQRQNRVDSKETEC
Readout Type: Relative proteolytic activity ADAM17

Recorded Relative proteolytic activity ADAM17, per entry:
X-PSAAQTARQHP-Z ({Edans‑E}-PSAAQTARQHP-{dabcyl‑K}) [TNFB2, FRET peptide substrate; X = Edans-E; Z = dabcyl-K]	(—)
X-PLAQAVRSSS-Z ({Edans‑E}-PLAQAVRSSS-{dabcyl‑K}) [TNFα, FRET peptide substrate; X = Edans-E; Z = dabcyl-K]	***
Z-LAQAVRSSSR-X ({dabcyl‑K}-LAQAVRSSSR-{Edans‑E}) [TNFα(−4 + 6), FRET peptide substrate; X = Edans-E; Z = dabcyl-K]	***
X-KPAKFFRL-Z ({Edans‑E}-KPAKFFRL-{dabcyl‑K}) [CatEl, FRET peptide substrate; X = Edans-E; Z = dabcyl-K]	(—)
X-PPVAASSLRN-Z ({Edans‑E}-PPVAASSLRN-{dabcyl‑K}) [KL1, FRET peptide substrate; X = Edans-E; Z = dabcyl-K]	(—)

Dear reader, for each entry below, please note its Relative proteolytic activity ADAM17.
1. X-KPAAFFRL-Z ({Edans‑E}-KPAAFFRL-{dabcyl‑K}) [CatE, FRET peptide substrate; X = Edans-E; Z = dabcyl-K]
2. X-RFAQAQQQLP-Z ({Edans‑E}-RFAQAQQQLP-{dabcyl‑K}) [CD27L, FRET peptide substrate; X = Edans-E; Z = dabcyl-K]
3. Z-RGVVNASSRLAK-X ({dabcyl‑K}-RGVVNASSRLAK-{Edans‑E}) [KAS-1, FRET peptide substrate; X = Edans-E; Z = dabcyl-K]
4. Z-RPLGLAR-X ({dabcyl‑K}-RPLGLAR-{Edans‑E}) [Mat, FRET peptide substrate; X = Edans-E; Z = dabcyl-K]

[A]
1. (—)
2. (—)
3. (—)
4. ***

Dear reader, for each entry below, please note its Relative proteolytic activity ADAM17.
1. X-RVRRALPS-Z ({Edans‑E}-RVRRALPS-{dabcyl‑K}) [AD8P2, FRET peptide substrate; X = Edans-E; Z = dabcyl-K]
2. X-RTAAVFRP-Z ({Edans‑E}-RTAAVFRP-{dabcyl‑K}) [AD8P, FRET peptide substrate; X = Edans-E; Z = dabcyl-K]

[A]
["(—)", "*****"]
